- experimental_details: Selectivity ratio of EC50 for recombinant Bcl-2 to EC50 for recombinant Bcl-XL
readout_name: Ratio EC50
The response must contain the number and no unit.

Recorded Ratio EC50, per entry:
CC[C@H](C)[C@H](NC(=O)[C@H](C)NC(=O)[C@H](CC(C)C)NC(=O)[C@H](CCC(N)=O)NC(=O)[C@H](CCCNC(=N)N)NC(=O)CNC(=O)[C@@H](NC(=O)[C@H](CCC(N)=O)NC(=O)CN)C(C)C)C(=O)N[C@@H](Cc1c[nH]c2ccccc12)C(=O)NCC(=O)N[C@@H](CC(=O)O)C(=O)N[C@@H](CC(=O)O)C(=O)N[C@H](C(=O)N[C@@H](CC(N)=O)C(=O)N[C@@H](CCCNC(=N)N)C(=O)O)[C@@H](C)CC = 7
CC[C@H](C)[C@H](NC(=O)[C@H](C)NC(=O)[C@H](CCSC)NC(=O)[C@H](CCC(N)=O)NC(=O)[C@H](CCCNC(=N)N)NC(=O)CNC(=O)[C@@H](NC(=O)[C@H](CCC(N)=O)NC(=O)CN)C(C)C)C(=O)N[C@H](C(=O)NCC(=O)N[C@@H](CC(=O)O)C(=O)N[C@@H](CC(=O)O)C(=O)N[C@H](C(=O)N[C@@H](CC(N)=O)C(=O)N[C@@H](CCCNC(=N)N)C(=O)O)[C@@H](C)CC)[C@@H](C)CC = 21
CC[C@H](C)[C@H](NC(=O)[C@H](C)NC(=O)[C@H](CC(C)C)NC(=O)[C@H](CCC(N)=O)NC(=O)[C@H](CCCNC(=N)N)NC(=O)CNC(=O)[C@H](Cc1ccc2ccccc2c1)NC(=O)[C@H](CCC(N)=O)NC(=O)CN)C(=O)N[C@H](C(=O)NCC(=O)N[C@@H](CC(=O)O)C(=O)N[C@@H](CC(=O)O)C(=O)N[C@H](C(=O)N[C@@H](CC(N)=O)C(=O)N[C@@H](CCCNC(=N)N)C(=O)O)[C@@H](C)CC)[C@@H](C)CC = 17
CC[C@H](C)[C@H](NC(=O)[C@H](C)NC(=O)[C@H](CC(C)C)NC(=O)[C@H](CCC(N)=O)NC(=O)[C@H](CCCNC(=N)N)NC(=O)CNC(=O)[C@@H](NC(=O)[C@H](CCC(N)=O)NC(=O)CN)C(C)C)C(=O)N[C@H](C(=O)NCC(=O)N[C@@H](CC(=O)O)C(=O)N[C@@H](CC(=O)O)C(=O)N[C@@H](Cc1ccc([N+](=O)[O-])cc1)C(=O)N[C@@H](CC(N)=O)C(=O)N[C@@H](CCCNC(=N)N)C(=O)O)[C@@H](C)CC = 13

Can you share its Ratio EC50? I mean this compound: CC[C@H](C)[C@H](NC(=O)[C@H](C)NC(=O)[C@H](CC(C)C)NC(=O)[C@H](CCC(N)=O)NC(=O)[C@H](CCCNC(=N)N)NC(=O)CNC(=O)[C@@H](NC(=O)[C@H](CCC(N)=O)NC(=O)CN)C(C)C)C(=O)N[C@@H](Cc1ccc(-c2ccccc2)cc1)C(=O)NCC(=O)N[C@@H](CC(=O)O)C(=O)N[C@@H](CC(=O)O)C(=O)N[C@H](C(=O)N[C@@H](CC(N)=O)C(=O)N[C@@H](CCCNC(=N)N)C(=O)O)[C@@H](C)CC
17
